test system: OCI-LY1 (cancer type: DLBCL); assay: normalized area under the dose-response curve (viability relative to DMSO control) (fraction); higher = less sensitive (more viable cells); settings: exposure time not given
metric: normalized area under the dose-response curve

- compound: "CNC(=O)c1cc(Oc2ccc(NC(=O)Nc3ccc(Cl)c(C(F)(F)F)c3)c(F)c2)ccn1 [Regorafenib]"
  experimental result: 1
- compound: "CC(=O)O[C@H]1C(=O)[C@@]2(C)[C@H]([C@H](OC(=O)c3ccccc3)[C@]3(O)C[C@H](OC(=O)[C@H](O)[C@@H](NC(=O)c4ccccc4)c4ccccc4)C(C)=C1C3(C)C)[C@]1(OC(C)=O)CO[C@@H]1C[C@@H]2O [Paclitaxel]"
  experimental result: 0.354
- compound: "O=C(/C=C\\n1cnc(-c2cc(C(F)(F)F)cc(C(F)(F)F)c2)n1)NNc1cnccn1 [Selinexor]"
  experimental result: 0.634

* * *

system: MM1.R (cancer type: MM); assay: normalized area under the dose-response curve (viability relative to DMSO control) (fraction); higher = less sensitive (more viable cells); conditions: exposure time not given
metric: normalized area under the dose-response curve

- compound: "C=CC(=O)Nc1cc(Nc2nccc(-c3cn(C)c4ccccc34)n2)c(OC)cc1N(C)CCN(C)C"
  experimental result: 0.45
- compound: "O=C1CC[C@H](N2Cc3c(OCc4ccc(CN5CCOCC5)cc4)cccc3C2=O)C(=O)N1 [Iberdomide]"
  experimental result: 0.91
- compound: "Nc1nc(F)nc2c1ncn2[C@@H]1O[C@H](COP(=O)(O)O)[C@@H](O)[C@@H]1O [Fludarabine phosphate]"
  experimental result: 0.92
- compound: "CS(=O)(=O)c1ccc(C(=O)Nc2ccc(Cl)c(-c3ccccn3)c2)c(Cl)c1"
  experimental result: 0.88
- compound: "COc1cc(Nc2c(C#N)cnc3cc(OCCCN4CCN(C)CC4)c(OC)cc23)c(Cl)cc1Cl"
  experimental result: 0.77
- compound: "Nc1cccc2c1C(=O)N(C1CCC(=O)NC1=O)C2=O (stereo not given) [Pomalidomide]"
  experimental result: 0.76
- compound: "CC[C@H](Nc1ncnc2[nH]cnc12)c1nc2cccc(F)c2c(=O)n1-c1ccccc1"
  experimental result: 0.74
- compound: "CNC(=O)c1cc(Oc2ccc(NC(=O)Nc3ccc(Cl)c(C(F)(F)F)c3)cc2)ccn1"
  experimental result: 0.61
- compound: "Cn1ncc(Cl)c1-c1cc(C(=O)N[C@H](CN)Cc2cccc(F)c2)sc1Cl"
  experimental result: 0.2
- compound: "Cc1sc2c(c1C)C(c1ccc(Cl)cc1)=N[C@@H](CC(=O)OC(C)(C)C)c1nnc(C)n1-2"
  experimental result: 0.55

* * *

Measured normalized area under the dose-response curve values are reported for all entries that follow.
tested on: KMS28BM (cancer type: MM); test: normalized area under the dose-response curve (viability relative to DMSO control) (fraction); higher = less sensitive (more viable cells); conditions: exposure time not given
metric: normalized area under the dose-response curve

- chemical structure: "COc1cc(Nc2c(C#N)cnc3cc(OCCCN4CCN(C)CC4)c(OC)cc23)c(Cl)cc1Cl"
  experimental result: 0.629
- chemical structure: "CS(=O)(=O)c1ccc(C(=O)Nc2ccc(Cl)c(-c3ccccn3)c2)c(Cl)c1"
  experimental result: 0.948
- chemical structure: "Nc1ncn([C@@H]2O[C@H](CO)[C@@H](O)[C@H]2O)c(=O)n1"
  experimental result: 0.774
- chemical structure: "COc1cc2nccc(Oc3ccc(NC(=O)NC4CC4)c(Cl)c3)c2cc1C(N)=O"
  experimental result: 0.877

* * *

Documented normalized area under the dose-response curve across a set of compounds
tested on: LP1 (cancer type: MM); assay: normalized area under the dose-response curve (viability relative to DMSO control) (fraction); higher = less sensitive (more viable cells); details: exposure time not given
metric: normalized area under the dose-response curve

- compound: "COc1cc2nccc(Oc3ccc(NC(=O)C4(C(=O)Nc5ccc(F)cc5)CC4)cc3)c2cc1OC [Cabozantinib]"
  test system: "LP1 (cancer type: MM)"
  experimental result: 0.803
- compound: "CC(C)C[C@H](NC(=O)[C@H](Cc1ccccc1)NC(=O)c1cnccn1)B(O)O"
  test system: "LP1 (cancer type: MM)"
  experimental result: 0.255
- compound: "Cc1[nH]c(/C=C2\\C(=O)Nc3ccc(F)cc32)c(C)c1C(=O)NCCN1CCCC1"
  test system: "LP1 (cancer type: MM)"
  experimental result: 0.796
- compound: "COC(=O)c1ccc2c(c1)NC(=O)/C2=C(\\Nc1ccc(N(C)C(=O)CN2CCN(C)CC2)cc1)c1ccccc1"
  test system: "LP1 (cancer type: MM)"
  experimental result: 0.828

* * *

system: OCI-MY5/CRBN (cancer type: MM); test: normalized area under the dose-response curve (viability relative to DMSO control) (fraction); higher = less sensitive (more viable cells); conditions: exposure time not given
metric: normalized area under the dose-response curve

- compound: "Cn1ncc(Cl)c1-c1cc(C(=O)N[C@H](CN)Cc2cccc(F)c2)sc1Cl [Afuresertib]"
  experimental result: 0.742
- compound: "N#CC[C@H](C1CCCC1)n1cc(-c2ncnc3[nH]ccc23)cn1 [Ruxolitinib]"
  experimental result: 0.993
- compound: "Cc1ccc(C(=O)Nc2ccc(CN3CCN(C)CC3)c(C(F)(F)F)c2)cc1C#Cc1cnc2cccnn12 [Ponatinib]"
  experimental result: 0.665

* * *

system: OCI-LY1 (cancer type: DLBCL); experiment: normalized area under the dose-response curve (viability relative to DMSO control) (fraction); higher = less sensitive (more viable cells); conditions: exposure time not given
Counter-ions that a name gives are not always drawn.
I would appreciate it if you labelled entries Met when normalized area under the dose-response curve is 0.8 or higher, otherwise Not met.

- compound: "C#Cc1cccc(Nc2ncnc3cc(OCCOC)c(OCCOC)cc23)c1 [Erlotinib hydrochloride]"
  assigned class: "Met"
- compound: "O=C(/C=C/c1cccc(S(=O)(=O)Nc2ccccc2)c1)NO"
  assigned class: "Not met"
- compound: "Cc1cccc(/C=N/Nc2cc(N3CCOCC3)n3nc(-c4ccncc4)cc3n2)c1"
  assigned class: "Not met"
- compound: "Cc1ccc(F)c(NC(=O)Nc2ccc(-c3cccc4[nH]nc(N)c34)cc2)c1"
  assigned class: "Met"
- compound: "N[C@@H](Cc1ccc(N(CCCl)CCCl)cc1)C(=O)O [Melphalan hydrochloride]"
  assigned class: "Met"
- compound: "Cc1noc2c1-c1ccccc1C(c1ccc(Cl)cc1)=N[C@H]2CC(N)=O"
  assigned class: "Met"

* * *

system: SR-786 (cancer type: TCL); assay: normalized area under the dose-response curve (viability relative to DMSO control) (fraction); higher = less sensitive (more viable cells); conditions: exposure time not given
metric: normalized area under the dose-response curve

- compound: "Cc1ccc(-n2nc(C(C)(C)C)cc2NC(=O)Nc2ccc(OCCN3CCOCC3)c3ccccc23)cc1 [Doramapimod]"
  experimental result: 0.919
- compound: "Cn1ncc(Cl)c1-c1cc(C(=O)N[C@H](CN)Cc2cccc(F)c2)sc1Cl [Afuresertib]"
  experimental result: 0.713
- compound: "Nc1nc(Cl)nc2c1ncn2[C@H]1C[C@H](O)[C@@H](CO)O1 [Cladribine]"
  experimental result: 0.766

* * *

tested on: Se-Ax (cancer type: TCL); test: normalized area under the dose-response curve (viability relative to DMSO control) (fraction); higher = less sensitive (more viable cells); details: exposure time not given
Where a name gives a salt, the structure may show the parent alone.
Assign class by normalized area under the dose-response curve: not lower than 0.6 means Y; lower than 0.6 means N.

- compound: "Cc1nc(Nc2ncc(C(=O)Nc3c(C)cccc3Cl)s2)cc(N2CCN(CCO)CC2)n1"
  test system: "Se-Ax (cancer type: TCL)"
  assigned class: "Y"
- compound: "CC(C)C[C@H](NC(=O)CNC(=O)c1cc(Cl)ccc1Cl)B(O)O"
  test system: "Se-Ax (cancer type: TCL)"
  assigned class: "N"
- compound: "COc1cc(Nc2ncc3c(n2)-c2ccc(Cl)cc2C(c2c(F)cccc2OC)=NC3)ccc1C(=O)O"
  test system: "Se-Ax (cancer type: TCL)"
  assigned class: "Y"
- compound: "COc1cc(C(=O)O)ccc1NC(=O)[C@@H]1N[C@@H](CC(C)(C)C)[C@](C#N)(c2ccc(Cl)cc2F)[C@H]1c1cccc(Cl)c1F"
  test system: "Se-Ax (cancer type: TCL)"
  assigned class: "Y"
- compound: "Cc1ccc(F)c(NC(=O)Nc2ccc(-c3cccc4[nH]nc(N)c34)cc2)c1"
  test system: "Se-Ax (cancer type: TCL)"
  assigned class: "Y"
- compound: "Nc1cccc2c1CN(C1CCC(=O)NC1=O)C2=O (stereo unspecified) [Lenalidomide]"
  test system: "Se-Ax (cancer type: TCL)"
  assigned class: "Y"
- compound: "Nc1ncn([C@@H]2O[C@H](CO)[C@@H](O)[C@H]2O)c(=O)n1"
  test system: "Se-Ax (cancer type: TCL)"
  assigned class: "Y"
- compound: "CCc1cnn2c(NCc3ccc[n+]([O-])c3)cc(N3CCCC[C@H]3CCO)nc12"
  test system: "Se-Ax (cancer type: TCL)"
  assigned class: "N"
- compound: "CS(=O)(=O)c1ccc(C(=O)Nc2ccc(Cl)c(-c3ccccn3)c2)c(Cl)c1"
  test system: "Se-Ax (cancer type: TCL)"
  assigned class: "Y"
- compound: "Nc1cccc2c1C(=O)N(C1CCC(=O)NC1=O)C2=O (stereo unspecified) [Pomalidomide]"
  test system: "Se-Ax (cancer type: TCL)"
  assigned class: "Y"
- compound: "Cn1c(CCCC(=O)O)nc2cc(N(CCCl)CCCl)ccc21 [Bendamustine hydrochloride]"
  test system: "Se-Ax (cancer type: TCL)"
  assigned class: "Y"
